# test_name: NCI Yeast Anticancer Drug Screen. Data for the sgs1 mgt1 strain (AID 161);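 further: 0% = growth of cultures given vehicle only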
# experimental_conditions: S. cerevisiae sgs1 mgt1 strain, at 50.0 µM, active compounds read high
About 79,000 compounds went through this panel and 15% of them were active in at least one assay; those are over-represented in the sample as a whole.
assay_metric: growth inhibition (%)
Only the number, expressed in %, is required.

// solved cases for growth inhibition follow
[[record]]
compound = "CCOc1ccccc1NC(=O)CC(C(=O)OC)C(=O)C(=O)OC (stereo not drawn)"
assay_metric = "growth inhibition"
observed_measurement = -24.1

[[record]]
compound = "CCOC(=O)NC1OC(C(N)=O)C(O)C(O)C1O (stereo not drawn)"
assay_metric = "growth inhibition"
observed_measurement = 3.4

[[record]]
compound = "CCN(C(=N)C#N)c1ccccc1"
assay_metric = "growth inhibition"
observed_measurement = 10.1

[[record]]
compound = "C=CCC12CCC(=O)[C@@]1(C)CC=C(O)C2=O (stereo partly drawn)"
assay_metric = "growth inhibition"
observed_measurement = 17.2

[[record]]
compound = "Cc1nn(CO)c(C)c1Br"
assay_metric = "growth inhibition"
observed_measurement = 5.9


*Q* Sample CC(C)=CC1C(COCc2cc3c(cc2Br)OCO3)C1(C)C (stereo not drawn) — what was its growth inhibition?
*A* 3

*Q* Sample CN(C)CCCCC(C#N)(c1ccccc1)c1ccccc1 — what was its growth inhibition?
*A* 16.6

*Q* Sample COc1cc2c(cc1O)C(=O)CCC(C(=O)O)=C2 — what was its growth inhibition?
*A* 3.65
